B1: Kinesin-like protein KIF16B, residues 1213 to 1273; numbered along this chain, Q96L93 (parent)
chain: ETWTVFRRYSRFREMHKTLKLKYAELAALEFPPKKLFGNKDERVIAERRSHLEKYLRDFFS

# Variants of: B1
# procedure_text: abundance fitness (aPCA) (normalised: wild type 0, dead -1); higher = more abundant; growth selection in yeast, the domain comes from the species named
# measurement_conditions: Homo sapiens
measured_attribute: abundance fitness

As a guide, the following entries are already answered.
INSERT INTO assay_data (residue_string, result) VALUES
  ('ETWTVFRRYSRFREMHKTLKLKYAELAALEFPPKKLFGNKDERVIAERVSHLEKYLRDFFS [R49V]', -0.41),
  ('ETWTVFRRYSRFREMHKTLKLKYAELAALEFPKKKLFGNKDERVIAERRSHLEKYLRDFFS [P33K]', 0.035),
  ('ETWTVFRRYSRFREMHKTLKLKYAELAALEFPPKKLFGNKDERVIAERISHLEKYLRDFFS [R49I]', 0.367),
  ('ETWTVFRRYSRFREMHKTLWLKYAELAALEFPPKKLFGNKDERVIAERRSHLEKYLRDFFS [K20W]', -0.734),
  ('EIWTVFRRYSRFREMHKTLKLKYAELAALEFPPKKLFGNKDERVIAERRSHLEKYLRDFFS [T2I]', 0.085),
  ('ETWTVFRRYSRFREMHKTLKLKYAELAALEFPPKKLFGNKDERVIAEDRSHLEKYLRDFFS [R48D]', -0.186),
  ('ETWTVFRRYSRFREQHKTLKLKYAELAALEFPPKKLFGNKDERVIAERRSHLEKYLRDFFS [M15Q]', -1.09),
  ('ETWTVFRRYSRFREMHKTLKLKYAELAALEFPPKKLFGNKDERVIAERRSHLEKYLRLFFS [D58L]', -0.075);

Given the entry ETWTVFRRYSRFREMHKTLKLKYAELAALEFPPKKYFGNKDERVIAERRSHLEKYLRDFFS [L36Y] , report its measured abundance fitness.
-0.525

How about ETWTVFRRYSRFREMHKTLKLKYAELTALEFPPKKLFGNKDERVIAERRSHLEKYLRDFFS [A27T] ?
0.127
